Target: 11β-HSD1 Dehydrogenase (Rattus norvegicus, UniProt P16232)
Sequence (P16232 whole entry): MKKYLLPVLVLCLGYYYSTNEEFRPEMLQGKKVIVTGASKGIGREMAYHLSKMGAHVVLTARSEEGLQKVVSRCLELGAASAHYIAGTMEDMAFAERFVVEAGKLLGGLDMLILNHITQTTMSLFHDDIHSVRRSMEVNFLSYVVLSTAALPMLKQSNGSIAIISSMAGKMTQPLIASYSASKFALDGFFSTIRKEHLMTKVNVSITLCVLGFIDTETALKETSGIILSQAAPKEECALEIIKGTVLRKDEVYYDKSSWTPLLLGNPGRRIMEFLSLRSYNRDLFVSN
Assay: 11β-HSD1 dehydrogenase assay in rat Leydig cell homogenates;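 note: tritiated corticosterone conversion by 11β-HSD1 dehydrogenase in Leydig homogenates with 3 mM NADP at pH 8.4, 37 °C for 10 min, products resolved by HPLC, inhibition relative to uninhibited enzyme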
Assay type: biochemical
Set-up: Freshly prepared rat Leydig cell homogenates were chosen since they provide a rich and reliable source of both 11β-HSD1 dehydrogenase and reductase; from tissue; host or cells: rat testicular Leydig cells, homogenate
Settings: rat Leydig cell homogenates, 600 nM corticosterone, NADP; corticosteroid series; read-out: Leydig Cell 11β-HSD1 Dehydrogenase [S]= 600 nM
Items are presented alongside their recorded IC50.

[
  {
    "molecule": "C[C@]12CC[C@@H](O)C[C@H]1CC[C@@H]1[C@@H]2[C@@H](O)C[C@@]2(C)[C@H]1CC[C@]2(O)C(=O)CO",
    "readout value": "> 100 µM"
  },
  {
    "molecule": "C[C@]12CC[C@@H](O)C[C@H]1CC[C@@H]1[C@@H]2C(=O)C[C@@]2(C)[C@H]1CC[C@]2(O)C(=O)CO",
    "readout value": "> 100 µM"
  }
]

INPUT: Look at this molecule and give its reported IC50. C[C@]12CCC(=O)C=C1CC[C@@H]1[C@@H]2[C@@H](O)C[C@]2(C=O)[C@@H](C(=O)CO)CC[C@@H]12 [Aldosterone, 4-Pregnen-11,21-diol-3,20-dione-18-al, reference compound]
OUTPUT: > 100 µM
